test protocol: Hemolytic activity against Homo sapiens (human) RBC assessed as hemoglobin release after 1 hr
Format: ADME, cell-based, Erythrocyte
condition parameters: red blood cells, read-out: HD50
*1 amine or outer side, *2 acyl side, *3 side chain or, on linkers, in order; H or OH if unused. Where a SMILES comes first, the peptide text is derived from it. [ ]: non-standard residue; d: D form. The star is where a group is joined. X1 = O=C([C@H](Cc1c[nH]c2ccccc12)N(Cc1ccccc1)[*:1])[*:2]; Palmitoyl = CCCCCCCCCCCCCCCC(=O)*; Tos = Cc1ccc(S(=O)(=O)*)cc1; Bz = O=C(c1ccccc1)*
measured property: HC50 at 1 h (µM)

compound	measured property	measurement unit	result number
CC[C@H](C)[C@H](NC(=O)[C@H](CCCCN)NC(=O)[C@H](CCCCN)NC(=O)[C@H](Cc1ccccc1)NC(=O)[C@H](CC(C)C)NC(=O)[C@H](CCCCN)NC(=O)[C@H](Cc1c[nH]c2ccccc12)NC(=O)c1ccccc1)C(=O)N[C@@H](CC(C)C)C(=O)N[C@@H](CCCCN)C(=O)N[C@H](C(=O)N[C@@H](CC(C)C)C(N)=O)C(C)C (Bz-WKLFKKILKVL-NH2)	HC50 at 1 h	µM	11
CC[C@H](C)[C@H](NC(=O)[C@H](CCCCN)NC(=O)[C@H](CCCCN)NC(=O)[C@H](Cc1ccccc1)NC(=O)[C@H](CC(C)C)NC(=O)[C@H](CCCCN)NC(=O)[C@@H](N)CCCCN)C(=O)N[C@@H](CC(C)C)C(=O)N[C@@H](CCCCN)C(=O)N[C@@H](Cc1ccccc1)C(=O)N[C@@H](CC(C)C)C(N)=O [KKLFKKILKFL-NH2]	HC50 at 1 h	µM	203
CC[C@H](C)[C@H](NC(=O)[C@H](CCCCN)NC(=O)[C@H](CCCCN)NC(=O)[C@H](Cc1ccccc1)NC(=O)[C@H](CC(C)C)NC(=O)[C@H](CCCCN)NC(=O)[C@@H](N)Cc1c[nH]c2ccccc12)C(=O)N[C@@H](CC(C)C)C(=O)N[C@@H](CCCCN)C(=O)N[C@@H](Cc1ccc(O)cc1)C(=O)N[C@@H](CC(C)C)C(N)=O	HC50 at 1 h	µM	42
CCCCCCCCCCCCCCCC(=O)N[C@@H](Cc1c[nH]c2ccccc12)C(=O)N[C@@H](CCCCN)C(=O)N[C@@H](CC(C)C)C(=O)N[C@@H](Cc1ccccc1)C(=O)N[C@@H](CCCCN)C(=O)N[C@@H](CCCCN)C(=O)N[C@H](C(=O)N[C@@H](CC(C)C)C(=O)N[C@@H](CCCCN)C(=O)N[C@H](C(=O)N[C@@H](CC(C)C)C(N)=O)C(C)C)[C@@H](C)CC (Palmitoyl-WKLFKKILKVL-NH2)	HC50 at 1 h	µM	6
CC[C@H](C)[C@H](NC(=O)[C@H](CCCCN)NC(=O)[C@H](CCCCN)NC(=O)[C@H](Cc1ccccc1)NC(=O)[C@H](CC(C)C)NC(=O)[C@H](CCCCN)NC(=O)[C@@H](N)CCCCN)C(=O)N[C@@H](CC(C)C)C(=O)N[C@@H](CCCCN)C(=O)N[C@H](C(=O)N[C@@H](CC(C)C)C(N)=O)C(C)C [KKLFKKILKVL-NH2]	HC50 at 1 h	µM	334
CC[C@H](C)[C@H](NC(=O)[C@H](CCCCN)NC(=O)[C@H](CCCCN)NC(=O)[C@H](Cc1ccccc1)NC(=O)[C@H](CC(C)C)NC(=O)[C@H](CCCCN)NC(=O)[C@H](Cc1c[nH]c2ccccc12)NS(=O)(=O)c1ccc(C)cc1)C(=O)N[C@@H](CC(C)C)C(=O)N[C@@H](CCCCN)C(=O)N[C@H](C(=O)N[C@@H](CC(C)C)C(N)=O)C(C)C (Tos-WKLFKKILKVL-NH2)	HC50 at 1 h	µM	10
CC[C@H](C)[C@H](NC(=O)[C@H](CCCCN)NC(=O)[C@H](CCCCN)NC(=O)[C@H](Cc1ccccc1)NC(=O)[C@H](CC(C)C)NC(=O)[C@H](CCCCN)NC(=O)[C@H](Cc1c[nH]c2ccccc12)NCc1ccccc1)C(=O)N[C@@H](CC(C)C)C(=O)N[C@@H](CCCCN)C(=O)N[C@H](C(=O)N[C@@H](CC(C)C)C(N)=O)C(C)C (H-[X1]KLFKKILKVL-NH2)	HC50 at 1 h	µM	30
